Ref: ChEMBL document CHEMBL3351912

Target sequence: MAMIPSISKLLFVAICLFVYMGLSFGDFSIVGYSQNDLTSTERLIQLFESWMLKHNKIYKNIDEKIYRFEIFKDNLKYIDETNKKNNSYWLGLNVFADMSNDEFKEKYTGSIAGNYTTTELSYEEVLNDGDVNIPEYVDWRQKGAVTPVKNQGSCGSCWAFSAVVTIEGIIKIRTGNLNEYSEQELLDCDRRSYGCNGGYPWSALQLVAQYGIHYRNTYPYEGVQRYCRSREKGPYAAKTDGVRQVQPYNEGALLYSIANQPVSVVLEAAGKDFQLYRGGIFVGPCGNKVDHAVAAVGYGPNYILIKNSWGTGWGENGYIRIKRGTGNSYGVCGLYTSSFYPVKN
METRIC_NAME: IC50 (nM)

// worked examples, IC50 included
[[record]]
query_smiles = "N#CCNC(=O)[C@H](Cc1ccccc1)NC(=O)c1ccccc1"
test_result = 360

[[record]]
query_smiles = "CC(C)C[C@H](NC(=O)CN=[N+]=[N-])C(=O)N[C@@H](Cc1ccccc1)C(=O)NCC#N"
test_result = 2250

[[record]]
query_smiles = "CC(C)C[C@H](NC(=O)CN=[N+]=[N-])C(=O)N[C@@H](CC(C)C)C(=O)NCC#N"
test_result = 2710

[[record]]
query_smiles = "N#CCNC(=O)[C@H](Cc1ccccc1)NC(=O)c1ccc(-c2ccccc2)cc1"
test_result = 220


(I) N#CCNC(=O)[C@H](CCc1ccccc1)NC(=O)c1ccc(CN=[N+]=[N-])cc1
(II) CCCC[C@H](NC(=O)c1ccc(CN=[N+]=[N-])cc1)C(=O)NCC#N
(III) N#CCNC(=O)[C@H](Cc1ccc(O)cc1)NC(=O)c1ccc(CN=[N+]=[N-])cc1
List from greatest to least IC50. The reply should contain the labels ordered as requested.
II, I, III
(II: 7100 nM, I: 710 nM, III: 280 nM)

(a) N#CCNC(=O)[C@H](Cc1ccc(O)cc1)NC(=O)c1ccc(-c2ccc(CN=[N+]=[N-])cc2)cc1
(b) N#CCNC(=O)[C@H](Cc1ccccc1)NC(=O)c1ccc(Cn2nnc3c2CC[C@H]2[C@@H](CC3)[C@H]2COC(=O)NCCOCCOCCN)cc1
(c) CC(C)C[C@H](NC(=O)c1ccc(-c2ccc(CN=[N+]=[N-])cc2)cc1)C(=O)NCC#N
List from greatest to least IC50. The reply should contain the labels ordered as requested.
a, c, b
(a: 51200 nM, c: 1580 nM, b: 350 nM)
